Each recorded value in this set is attributed to the NIST ThermoML archive (doi:10.1021/je0256481).

Property: activity coefficient; scope: individual compounds
# Protocol: activity coefficient (dimensionless); of the first substance listed, at infinite dilution; xn = mol fraction of the nth substance listed
# Assay Context: 313.15 K; Liquid; x1 = 0

# Compound, activity coefficient
data = [
    ("C1CCCCC1 [cyclohexane] + CCCCCCn1cc[n+](C)c1.F[P-](F)(F)(F)(F)F", 10.6),
    ("C1CCCCCC1 [cycloheptane] + CCCCCCn1cc[n+](C)c1.F[P-](F)(F)(F)(F)F", 14.2),
    ("CCCCCC [hexane] + CCCCCCn1cc[n+](C)c1.F[P-](F)(F)(F)(F)F", 19.2),
]
